Catalogue of apparent KD of MS2 coat protein values
# Test system: MS2 coat protein
# measurementDescription: apparent KD of MS2 coat protein; designed switch direction (-1 OFF switch, 1 ON switch): -1; higher = weaker reporter binding
# conditionsUsed: Eterna round: R95; input ligand: microRNA oligo, concentration not stated

{"columns": ["recordSequence", "tgt", "apparent KD of MS2 coat protein [nM]"],
 "data": [
  ["AGUAUCUAUCAUGAGAGUGGUAGGUACAACAGGUGGGAAACAUGAGGAUCACCCAUGUCCUCAUUUGCUCGUCUUAU [Grok-var2-01] (puzzle: Sensor v3, turn-off variant 2)", "MS2 coat protein", 144],
  ["AGUAACUAUCACGAAAGUGAUAGUUACACAAGCAGUGAAACAUGAGGAUCACCCAUGUCCUCAAUUGCUCGUCUUAU [Sensor 3 - 31] (puzzle: Sensor v3, turn-off variant 2)", "MS2 coat protein", 194],
  ["AUACCACGAGGAUAUCGUCUAUAAUACAUGAGGAUCACCCAUGUUAUAUAUGUAAUGUUUCGAGAAGGCGUGUUUU [JR_E5_Sub082] (puzzle: Exclusion 5)", "MS2 coat protein", 14.7]
]}
